Target: NADPH oxidase 2 (Homo sapiens) (UniProt P04839)
Sequence (P04839 whole entry, looked up): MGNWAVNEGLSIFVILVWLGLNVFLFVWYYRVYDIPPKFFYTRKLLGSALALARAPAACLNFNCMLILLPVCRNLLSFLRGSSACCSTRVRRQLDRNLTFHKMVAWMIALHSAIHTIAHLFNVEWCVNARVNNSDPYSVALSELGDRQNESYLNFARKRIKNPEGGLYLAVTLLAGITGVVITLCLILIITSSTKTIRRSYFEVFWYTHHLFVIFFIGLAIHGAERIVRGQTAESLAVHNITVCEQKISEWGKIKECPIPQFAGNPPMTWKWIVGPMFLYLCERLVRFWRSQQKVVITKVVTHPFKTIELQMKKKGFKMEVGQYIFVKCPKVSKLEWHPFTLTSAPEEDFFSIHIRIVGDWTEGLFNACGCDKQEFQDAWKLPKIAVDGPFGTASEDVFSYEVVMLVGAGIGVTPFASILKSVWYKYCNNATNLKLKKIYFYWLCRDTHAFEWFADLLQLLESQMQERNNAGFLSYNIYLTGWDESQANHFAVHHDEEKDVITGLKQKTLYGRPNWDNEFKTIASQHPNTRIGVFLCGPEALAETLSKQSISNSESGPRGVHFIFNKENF
Assay: NOX2-dependent H2O2 signal modulators, primary screen, NOX inhibitor project, cell-based, HEK293-NOX2, PMA-stimulated, Amplex Red fluorescence (AID 1159); also: test concentration not given here
Conditions: 45 min, higher = more signal, called active from +8 up or from −8 down
Classify as follows. Reported z-score greater than or equal to 0.1: Fulfilled. Reported z-score below: Not fulfilled.

| COMPOUND | CLASS_LABEL |
| --- | --- |
| CCC[C@@H]1C=C(C(=O)OCC)[C@H](c2ccccc2)N1S(=O)(=O)c1ccc(C)cc1 | Not fulfilled |
| C=CC[C@]1(C(=O)OC)N=C(c2ccc(OCCCO)cc2)O[C@H]1c1ccccc1N=[N+]=[N-] | Not fulfilled |
| CCOC(=O)C1=CCC(c2cc3ccccc3[nH]2)N(S(=O)(=O)c2ccccc2[N+](=O)[O-])C1 (configuration not stated) | Fulfilled |
| COCCOC(=O)N1C(=O)[C@@]2(c3cc(C#CCCO)ccc31)[C@H](c1ccccc1OCCO)N1[C@H](c3ccccc3)[C@H](c3ccccc3)OC(=O)[C@H]1[C@@H]2C(=O)N1CCc2cc(OC)c(OC)cc2C1 | Fulfilled |
| CCCCC(O)C1C=CC2C(=O)NC(=O)C2N1Nc1ccc(Cl)cc1Cl (configuration not stated) | Not fulfilled |
| CCCC=C(CCC)[C@@H](NC(=O)c1ccco1)c1ccc(C(=O)OC)cc1 | Not fulfilled |
